test system: LOC_OS07G06570-cb004; assay: thermal shift delta Tm vs DMSO control; higher = stronger stabilization (binding); details: 12.5 µM; protein concentration 2 µM;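 also: purified Escherichia coli-expressed rice kinase domain construct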
quantityMeasured: thermal shift delta Tm

INSERT INTO assay_data (querysmiles, measuredvalue) VALUES
  ('OCCn1cc(-c2ccc3c(c2)CC/C3=N\O)c(-c2ccncc2)n1', '0.92 °C'),
  ('N#Cc1c(NC(=O)c2cccc3ccccc23)sc2c1CCCC2', '0.83 °C'),
  ('Cn1cc(-c2ccc3nnc(Sc4ccc5ncccc5c4)n3n2)cn1', '1.36 °C'),
  ('Cc1n[nH]c2ncc(C(=O)N3CCC[C@H]3c3ccc(Cl)cc3)cc12', '1.74 °C'),
  ('Cc1cc(Nc2ncc(Cl)c(Nc3ccccc3S(=O)(=O)C(C)C)n2)c(OC(C)C)cc1C1CCNCC1', '1.5 °C');

###

Examples of compounds with documented thermal shift delta Tm follow.
test system: LOC_OS02G07810-cb001; assay: thermal shift delta Tm vs DMSO control; higher = stronger stabilization (binding); details: 12.5 µM; protein concentration 2 µM
quantityMeasured: thermal shift delta Tm

INSERT INTO results (compound, measuredvalue) VALUES
  ('CC#CC(=O)Nc1ccc2ncnc(Nc3cccc(Br)c3)c2c1', '0.86 °C'),
  ('O=c1ncn2nc(Sc3ccc(F)cc3F)ccc2c1-c1c(Cl)cccc1Cl', '0.79 °C'),
  ('CN1CC[C@H](c2c(O)cc(O)c3c(=O)cc(-c4ccccc4Cl)oc23)[C@H](O)C1 [Flavopiridol (Alvocidib)]', '0.63 °C'),
  ('COc1cc2ncnc(Nc3ccc(Oc4ccccc4)cc3C)c2cc1OC', '-1.03 °C'),
  ('CN1CCN(Cc2ccc(-c3cnc4[nH]cc(-c5ccc6[nH]ccc6c5)c4c3)cc2)CC1', '1.34 °C'),
  ('O=C(O[C@@H]1Cc2c(O)cc(O)cc2O[C@@H]1c1cc(O)c(O)c(O)c1)c1cc(O)c(O)c(O)c1 [(-)-Epigallocatechin Gallate]', '3.56 °C'),
  ('O=c1c(-c2ccc(O)cc2)coc2cc(O)cc(O)c12', '0.97 °C'),
  ('Nc1[nH]nc2nnc(-c3c(-c4ccccc4)nn4ccccc34)cc12', '-0.25 °C'),
  ('C=C(C)[C@@H]1CC[C@]2(C)CC[C@]3(C)[C@H](CC[C@@H]4[C@@]5(C)CC[C@H](O)C(C)(C)[C@@H]5CC[C@]43C)[C@@H]12', '1 °C'),
  ('N[C@@H]1CCCN(c2c(/C=C3\SC(=O)NC3=O)cccc2-c2ccccc2)C1', '0.55 °C'),
  ('COc1ncc(-c2ccc3nccc(-c4ccnnc4)c3c2)cc1NS(=O)(=O)c1ccc(F)cc1F', '1.43 °C'),
  ('CC(C)c1c2cc(-c3ccnc(NC4CCC(NC5CCOCC5)CC4)n3)ccc2nn1C (stereo not drawn)', '0.41 °C'),
  ('C1=N/C2=N/c3ccc(OCCN4CCCC4)c(c3)COC/C=C/COCc3cccc(c3)C(=C1)N2 [Pacritinib (SB1518)]', '0.11 °C'),
  ('O=C1c2ccc(Nc3ccc(F)cc3F)cc2CCc2ccc(OC[C@H](O)CO)cc21 [Skepinone-L]', '-0.07 °C'),
  ('CCCCCCCCCCCCCCCCCCOP(=O)([O-])OC1CC[N+](C)(C)CC1', '-0.99 °C'),
  ('O=C(NOCCO)c1ccc2cncn2c1Nc1ccc(I)cc1F', '1.14 °C'),
  ('Cc1cc(Nc2ncc(Cl)c(Nc3ccccc3S(=O)(=O)C(C)C)n2)c(OC(C)C)cc1C1CCNCC1', '0.36 °C'),
  ('COc1cc2nccc(Oc3ccc(NC(=O)NC4CC4)c(Cl)c3)c2cc1C(N)=O [Lenvatinib (E7080)]', '0.65 °C');

###

test system: LOC_OS05G16824-cb004; assay: thermal shift delta Tm vs DMSO control; higher = stronger stabilization (binding); details: 12.5 µM; protein concentration 2 µM
Binned thermal shift delta Tm; ranges: L (below -1 °C), M (-1 °C to below 2 °C), H (2 °C or more)

INSERT INTO measurements (molecule, assaytarget, answerlabel) VALUES
  ('COCCNCc1ccc(-c2cc3nccc(Oc4ccc(NC(=O)C5(C(=O)Nc6ccc(F)cc6)CC5)cc4F)c3s2)nc1 [Sitravatinib (MGCD516)]', 'LOC_OS05G16824-cb004', 'H'),
  ('CC1=C(C(=O)Nc2cc3cn[nH]c3cc2F)C(c2ccc(C(F)(F)F)cc2)CC(=O)N1 (configuration not stated)', 'LOC_OS05G16824-cb004', 'L'),
  ('CCc1cncnc1N1CCN(Cc2nc3ccc(C(F)(F)F)cc3[nH]2)CC1', 'LOC_OS05G16824-cb004', 'L'),
  ('CC(C)c1cnn2c(NCc3ccccc3)cc(NCCCCCCN)nc12', 'LOC_OS05G16824-cb004', 'L'),
  ('O=c1[nH]nc(Sc2ncc([N+](=O)[O-])s2)n1-c1ccc2c(c1)OCCO2', 'LOC_OS05G16824-cb004', 'L'),
  ('C[C@@H](Oc1cc(-n2cnc3ccc(CN4CCN(C)CC4)cc32)sc1C(N)=O)c1ccccc1C(F)(F)F', 'LOC_OS05G16824-cb004', 'L'),
  ('CCS(=O)(=O)N1CC(CC#N)(n2cc(-c3ncnc4[nH]ccc34)cn2)C1', 'LOC_OS05G16824-cb004', 'M'),
  ('COc1ccc(C(=O)Nc2sc3c(c2C(N)=O)CCCC3)cc1OC', 'LOC_OS05G16824-cb004', 'L'),
  ('CN1CCN(C2CCN(C(=O)Nc3cc(Oc4ccc(NC(=O)C5(C(=O)Nc6ccc(F)cc6)CC5)c(F)c4)ccn3)CC2)CC1 [Golvatinib (E7050)]', 'LOC_OS05G16824-cb004', 'M'),
  ('CCOC(=O)c1cnc2ccc(-c3cncc(NS(=O)(=O)c4ccccc4)c3)cn12', 'LOC_OS05G16824-cb004', 'M'),
  ('CN1CCN(c2ccc3nc(-c4c(N)c5c(F)cccc5[nH]c4=O)[nH]c3c2)CC1 [Dovitinib (TKI258) Lactate]', 'LOC_OS05G16824-cb004', 'H'),
  ('COc1cc(Nc2ncc3c(n2)-c2ccc(Cl)cc2C(c2c(F)cccc2OC)=NC3)ccc1C(=O)O [Alisertib (MLN8237)]', 'LOC_OS05G16824-cb004', 'H'),
  ('CCn1c(=O)c(-c2ccc(Cl)cc2Cl)cc2cnc(Nc3ccc(N4CCNCC4)c(F)c3)nc21', 'LOC_OS05G16824-cb004', 'H'),
  ('Cc1ccc(NC(=O)Nc2cc(C(F)(F)F)ccc2F)cc1Nc1ccc2c(c1)NC(=O)/C2=C\c1ccc[nH]1', 'LOC_OS05G16824-cb004', 'H'),
  ('Cc1cc2c(F)c(Oc3ncnn4cc(OC[C@@H](C)OC(=O)[C@H](C)N)c(C)c34)ccc2[nH]1', 'LOC_OS05G16824-cb004', 'M'),
  ('COC1(c2sc3c(N4CCOCC4)nc(-c4cnc(N)nc4)nc3c2C)COC1', 'LOC_OS05G16824-cb004', 'M'),
  ('CCCCNc1ncc(-c2ccc(CN3CCOCC3)cn2)c(NC2CCC(O)CC2)n1 (configuration not stated)', 'LOC_OS05G16824-cb004', 'H');

###

compounds and their reported thermal shift delta Tm
system: LOC_OS04G41100-cb001; assay: thermal shift delta Tm vs DMSO control; higher = stronger stabilization (binding); conditions: 12.5 µM; protein concentration 2 µM
Sequence (as listed by the source): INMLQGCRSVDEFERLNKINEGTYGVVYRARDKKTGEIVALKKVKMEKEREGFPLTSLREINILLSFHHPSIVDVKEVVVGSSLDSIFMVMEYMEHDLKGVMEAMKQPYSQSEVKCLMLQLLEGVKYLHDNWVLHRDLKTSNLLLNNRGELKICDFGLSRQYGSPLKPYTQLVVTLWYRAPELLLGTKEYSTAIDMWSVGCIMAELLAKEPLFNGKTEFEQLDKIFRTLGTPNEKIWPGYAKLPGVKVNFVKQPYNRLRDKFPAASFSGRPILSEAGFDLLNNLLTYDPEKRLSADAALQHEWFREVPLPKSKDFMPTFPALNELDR
Where a name gives a salt, the structure may show the parent alone.
quantityMeasured: thermal shift delta Tm

INSERT INTO measurements (compound, quantitymeasured, measuredvalue) VALUES
  ('O=c1c(-c2ccc(O)cc2)coc2cc(O)cc(O)c12 [Genistein]', 'thermal shift delta Tm', '-0.75 °C'),
  ('COc1cc(-c2cc(-c3ccc(N4CCNCC4)cc3)cnc2C)cc(OC)c1OC', 'thermal shift delta Tm', '0.29 °C'),
  ('Cc1ccc(Nc2nccc(N(C)c3ccc4c(C)n(C)nc4c3)n2)cc1S(N)(=O)=O [Pazopanib]', 'thermal shift delta Tm', '3.44 °C'),
  ('Nc1ccc(C(=O)Nc2cccc(-c3nc(N4CCOCC4)c4oc5ncccc5c4n3)c2)cn1', 'thermal shift delta Tm', '0.52 °C'),
  ('OCCn1cc(-c2cnc3nnn(Cc4ccc5ncccc5c4)c3n2)cn1', 'thermal shift delta Tm', '0.57 °C'),
  ('Cc1ccc(-n2nc(C(C)(C)C)cc2NC(=O)NCc2cc(F)ccc2Oc2ccc3c(cnn3CCO)c2)cc1 [Pexmetinib (ARRY-614)]', 'thermal shift delta Tm', '1.43 °C'),
  ('CC(=O)Nc1nc(C)c(-c2ccc(Cl)c(S(=O)(=O)NCCO)c2)s1', 'thermal shift delta Tm', '0.77 °C'),
  ('CCCCCCCCc1ccc(CCC(N)(CO)CO)cc1 [Fingolimod (FTY720) HCl]', 'thermal shift delta Tm', '0.19 °C'),
  ('O=C(NCCCNc1nc(Nc2cccc(NC(=O)N3CCCC3)c2)ncc1I)c1cccs1', 'thermal shift delta Tm', '2.91 °C'),
  ('O=C1NC(=O)/C(=C/c2ccc3c(c2)OC(F)(F)O3)S1', 'thermal shift delta Tm', '0.5 °C'),
  ('O=C(c1cccc(Cl)c1F)N1CCN(Cc2cccc(Nc3nccs3)n2)CC1', 'thermal shift delta Tm', '0.42 °C'),
  ('Cc1cc(Nc2cc(Cl)nc(Oc3ccc([N+](=O)[O-])cc3)n2)n[nH]1 [Autophinib]', 'thermal shift delta Tm', '1.26 °C'),
  ('CCN(C)S(=O)(=O)Nc1ccc(F)c(C(=O)c2c[nH]c3ncc(-c4cnc(C5CC5)nc4)cc23)c1F', 'thermal shift delta Tm', '0.37 °C'),
  ('Cc1cc2c(F)c(Oc3ncnn4cc(OC[C@@H](C)OC(=O)[C@H](C)N)c(C)c34)ccc2[nH]1', 'thermal shift delta Tm', '0.68 °C'),
  ('O=C(Nc1ccc(OC(F)(F)F)cc1)c1sccc1NCc1ccnc2ccccc12', 'thermal shift delta Tm', '0.59 °C'),
  ('O=C(NOC[C@H](O)CO)c1ccc(F)c(F)c1Nc1ccc(I)cc1F', 'thermal shift delta Tm', '0.78 °C'),
  ('C[C@]1(O)C[C@@H](c2nc(-c3ccc4ccc(-c5ccccc5)nc4c3)c3c(N)nccn32)C1 [Linsitinib (OSI-906)]', 'thermal shift delta Tm', '0.85 °C'),
  ('O=C(Nc1nc2cccc(-c3ccc(CN4CCS(=O)(=O)CC4)cc3)n2n1)C1CC1 [Filgotinib (GLPG0634)]', 'thermal shift delta Tm', '0.6 °C');
